Settings: 313.15 K; 101.33 kPa; Liquid; Capillary tube (Ostwald / Ubbelohde) method
propertyLabel: kinematic viscosity (m2/s)
Numbers only, in m2/s.

Give one value of kinematic viscosity per listed compound.
1. CCCCCC
2. CCCCCl
3. CC(C)CCl
4. CC(C)(C)Cl

["4.04e-07", "4.22e-07", "4.36e-07", "4.77e-07"]

Give one value of kinematic viscosity per listed compound.
1. CCC(C)(C)C
2. CCC(C)Cl (stereo not drawn)
3. CCC(C)CC
4. CCCCCCC

4.58e-07
4.05e-07
3.88e-07
4.99e-07

* * *

Kindly supply the reported kinematic viscosity values for the records listed here.
Details: 298.15 K; 101.33 kPa; Liquid; Capillary tube (Ostwald / Ubbelohde) method
Give bare numbers, in m2/s.

Give one value of kinematic viscosity per listed compound.
1. CCC(C)(C)C
2. CCC(C)Cl (stereo not drawn)
3. CCCCCl

5.21e-07
4.6e-07
4.78e-07

Give one value of kinematic viscosity per listed compound.
1. CCCCCC
2. CCC(C)CC
3. CCCCCCC
4. CC(C)(C)Cl

4.49e-07
4.37e-07
5.75e-07
5.7e-07

Entry `CC(C)CCl` , kinematic viscosity reported as 4.93e-07
